Reported MIC values for a set of molecules
System: Pseudomonas aeruginosa
experimentDescription: Antibacterial activity against Pseudomonas aeruginosa PA14 assessed inhibition of bacterial growth preincubated for 10 mins in matrix containing human blood plasma spiked with fresh LB medium in PBS followed by overnight grown bacterial culture addition incubated for 18 to 20 hrs by broth microdilution method
Type: functional
measuredEndpoint: MIC

{"columns": ["givenSmiles", "result"],
 "data": [
  ["CC(C)C[C@H](NC(=O)CNC(=O)[C@H](C)NC(=O)c1ccc(S[C@@H]2O[C@H](CO)[C@H](O)[C@H](O)[C@H]2O)cc1)C(=O)N[C@@H](C)C(=O)N1CCN(c2cc3c(cc2F)c(=O)c(C(=O)O)cn3C2CC2)CC1", "> 25 µM"],
  ["O=C(O)c1cn(C2CC2)c2cc(N3CCNCC3)c(F)cc2c1=O", "0.156 µM"],
  ["CC(C)C[C@H](NC(=O)CNC(=O)[C@H](C)NC(=O)c1ccc(S[C@@H]2O[C@H](CO)[C@H](O)[C@H](O)[C@H]2O)cc1)C(=O)N[C@@H](C)C(=O)NC[C@@H]1CCN(c2cc3c(cc2F)c(=O)c(C(=O)O)cn3C2CC2)C1", "> 25 µM"],
  ["CC(C)C[C@H](NC(=O)CNC(=O)[C@H](C)NC(=O)c1ccc(S(=O)(=O)NC[C@H]2O[C@@H](C)[C@@H](O)[C@@H](O)[C@@H]2O)cc1)C(=O)N[C@@H](C)C(=O)N1CCN(c2cc3c(cc2F)c(=O)c(C(=O)O)cn3C2CC2)CC1", "≥ 25 µM"],
  ["CC(C)C[C@H](NC(=O)CNC(=O)[C@H](C)NC(=O)c1ccc(S(=O)(=O)NC[C@H]2O[C@@H](C)[C@@H](O)[C@@H](O)[C@@H]2O)cc1)C(=O)N[C@@H](C)C(=O)N[C@H]1CCN(c2cc3c(cc2F)c(=O)c(C(=O)O)cn3C2CC2)C1", "≥ 25 µM"],
  ["CC(C)C[C@H](NC(=O)CNC(=O)[C@H](C)NC(=O)c1ccc(S[C@@H]2O[C@H](CO)[C@H](O)[C@H](O)[C@H]2O)cc1)C(=O)N[C@@H](C)C(=O)N[C@H]1CCN(c2cc3c(cc2F)c(=O)c(C(=O)O)cn3C2CC2)C1", "≥ 25 µM"],
  ["CC(C)C[C@H](NC(=O)CNC(=O)[C@H](C)NC(=O)c1ccc(S(=O)(=O)NC[C@H]2O[C@@H](C)[C@@H](O)[C@@H](O)[C@@H]2O)cc1)C(=O)N[C@@H](C)C(=O)NC[C@@H]1CCN(c2cc3c(cc2F)c(=O)c(C(=O)O)cn3C2CC2)C1", "≥ 25 µM"]
]}

====

experimentDescription: Metabolic stability in mouse liver microsomes assessed as half life at 100 uM preincubated for 5 mins followed by NADPH addition and measured upto 60 mins by HPLC-MS/MS analysis
Assay type: ADME, Microsome
measurementParameters: time 65 min

{"columns": ["givenSmiles", "half-life at 100 µM"],
 "data": [
  ["Cl.N[C@H]1CCN(c2cc3c(cc2F)c(=O)c(C(=O)O)cn3C2CC2)C1", "> 1 h"]
]}

====

target: PA-I galactophilic lectin (Pseudomonas aeruginosa (strain ATCC 15692 / PAO1 / 1C / PRS 101 / LMG12228), UniProt Q05097)
Sequence (Q05097 whole entry): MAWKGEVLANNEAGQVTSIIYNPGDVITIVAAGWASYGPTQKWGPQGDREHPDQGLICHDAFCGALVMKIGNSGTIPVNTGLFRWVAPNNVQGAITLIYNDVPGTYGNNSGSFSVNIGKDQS
experimentDescription: Competitive binding affinity to recombinant Pseudomonas aeruginosa LecA expressed in Escherichia coli BL21(DE3) incubated for 30 to 60 mins by fluorescent polarization assay
pIC50: −log10 of the molar value.
measuredEndpoint: pIC50

{"columns": ["givenSmiles", "measuredEndpoint", "quantitativeReadout"],
 "data": [
  ["CC(C)C[C@H](NC(=O)CNC(=O)[C@H](C)NC(=O)c1ccc(S[C@@H]2O[C@H](CO)[C@H](O)[C@H](O)[C@H]2O)cc1)C(=O)N[C@@H](C)C(=O)N[C@H]1CCN(c2cc3c(cc2F)c(=O)c(C(=O)O)cn3C2CC2)C1", "pIC50", 4.53],
  ["CC(C)C[C@H](NC(=O)CNC(=O)[C@H](C)NC(=O)c1ccc(S[C@@H]2O[C@H](CO)[C@H](O)[C@H](O)[C@H]2O)cc1)C(=O)N[C@@H](C)C(=O)N1CCN(c2cc3c(cc2F)c(=O)c(C(=O)O)cn3C2CC2)CC1", "pIC50", 4.50],
  ["CC(C)C[C@H](NC(=O)CNC(=O)[C@H](C)NC(=O)c1ccc(S[C@@H]2O[C@H](CO)[C@H](O)[C@H](O)[C@H]2O)cc1)C(=O)N[C@@H](C)C(=O)NC[C@@H]1CCN(c2cc3c(cc2F)c(=O)c(C(=O)O)cn3C2CC2)C1", "pIC50", 4.55],
  ["O=[N+]([O-])c1ccc(O[C@@H]2O[C@H](CO)[C@H](O)[C@H](O)[C@H]2O)cc1", "pIC50", 4.21]
]}

Each recorded value in this set is attributed to ChEMBL document CHEMBL5108061.
